pIC50: −log10 of the molar value.
human LMPTP-A (Homo sapiens, UniProt P24666) pIC50, compiled from various sources.
Sequence (P24666 whole entry): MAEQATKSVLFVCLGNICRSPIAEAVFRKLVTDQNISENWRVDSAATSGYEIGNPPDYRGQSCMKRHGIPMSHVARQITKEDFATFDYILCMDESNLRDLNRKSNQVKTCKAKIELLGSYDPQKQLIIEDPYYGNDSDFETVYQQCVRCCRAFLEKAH

MOLECULAR STRING	TARGET	pIC50
Clc1cccc(Cl)c1Cn1cnc(Nc2ccc(Br)cc2)c2ncnc1-2	human LMPTP-A (Homo sapiens, UniProt P24666)	4.70 to 6.00
N#Cc1c(-c2cc(NCCCN3CCCCC3)c3cnccc3n2)ccc2[nH]c(C(=O)NC3CCNCC3)nc12	human LMPTP-A (Homo sapiens, UniProt P24666)	4.70 to 6.00
O=C(NCCCN1CCCCC1)c1ccc(-c2cc(NCc3ccncc3)c3cnccc3n2)cc1	human LMPTP-A (Homo sapiens, UniProt P24666)	4.70 to 6.00
CN1CCC(NC(=O)/C=C/c2ccc(-c3cc(NCCCN4CCCCC4)c4cnccc4n3)o2)CC1	human LMPTP-A (Homo sapiens, UniProt P24666)	≤ 4.70
Clc1cccc(Cl)c1Cn1cnc(NC2CC2)c2ncnc1-2	human LMPTP-A (Homo sapiens, UniProt P24666)	4.70 to 6.00
Nc1ncn(Cc2cccc(O)c2)c2ncnc1-2	human LMPTP-A (Homo sapiens, UniProt P24666)	4.70 to 6.00
CC(=O)c1ccc(Nc2ncn(Cc3c(Cl)cccc3Cl)c3ncnc2-3)cc1	human LMPTP-A (Homo sapiens, UniProt P24666)	4.70 to 6.00
O=C(NCCCN1CCCCC1)c1ccc(-c2cc(NC3CCOCC3)c3cnccc3n2)cc1	human LMPTP-A (Homo sapiens, UniProt P24666)	4.70 to 6.00
Cn1nccc1-c1nc2c(N)ncn(Cc3c(Cl)cccc3Cl)c-2n1	human LMPTP-A (Homo sapiens, UniProt P24666)	≥ 6.00
Fc1ccc(CNc2ncn(Cc3c(Cl)cccc3Cl)c3ncnc2-3)cc1	human LMPTP-A (Homo sapiens, UniProt P24666)	4.70 to 6.00
Nc1ncn(Cc2c(Cl)cccc2Cl)c2nc(C3CCCCC3)nc1-2	human LMPTP-A (Homo sapiens, UniProt P24666)	≥ 6.00
Cn1c(C(=O)NC2CCOCC2)cc2cc(-c3cc(NCCCN4CCCCC4)c4cnccc4n3)ccc21	human LMPTP-A (Homo sapiens, UniProt P24666)	≥ 6.00
Fc1ccccc1CNc1ncn(Cc2c(Cl)cccc2Cl)c2ncnc1-2	human LMPTP-A (Homo sapiens, UniProt P24666)	4.70 to 6.00
CN(C)c1ccc(Nc2ncn(Cc3c(Cl)cccc3Cl)c3ncnc2-3)cc1	human LMPTP-A (Homo sapiens, UniProt P24666)	4.70 to 6.00
Nc1ncn(Cc2c(Cl)cccc2Cl)c2nc(-c3cc(F)c(F)cc3F)nc1-2	human LMPTP-A (Homo sapiens, UniProt P24666)	≥ 6.00
CN1CCC(NC(=O)CCOc2ccc(-c3cc(NCCCN4CCCCC4)c4cnccc4n3)cc2)CC1	human LMPTP-A (Homo sapiens, UniProt P24666)	≤ 4.70
Cc1noc(C)c1Cn1cnc(N)c2ncnc1-2	human LMPTP-A (Homo sapiens, UniProt P24666)	4.70 to 6.00
CN(C)c1ncn(Cc2c(Cl)cccc2Cl)c2ncnc1-2	human LMPTP-A (Homo sapiens, UniProt P24666)	≤ 4.70
Nc1ncn(Cc2c(Cl)cccc2Cl)c2nc(C3CCS(=O)(=O)CC3)nc1-2	human LMPTP-A (Homo sapiens, UniProt P24666)	≥ 6.00
Cc1cccc(Nc2ncn(Cc3c(Cl)cccc3Cl)c3ncnc2-3)c1C	human LMPTP-A (Homo sapiens, UniProt P24666)	4.70 to 6.00
Nc1ncn(Cc2c(Br)cncc2Br)c2nc(-c3cnn4ccccc34)nc1-2	human LMPTP-A (Homo sapiens, UniProt P24666)	> 6.00
